Values compiled from ChEMBL document CHEMBL3232764.

readout-type: IC50 (µM)
Record the value in µM, omitting the unit from your answer.

Q: Query for UniProtKB Q9UKV0: what IC50 does the record show for O=C(/C=C/c1ccc(-c2ccc(O)cc2)cc1)NO ?
Result: 8.92

====

Observed IC50 for Histone deacetylase 2 (Homo sapiens), reported per entry below.

Q: // returns reported IC50 for input COc1ccc(-c2ccc(/C=C/C=C/C(=O)NO)cc2)cc1C12CC3CC(CC(C3)C1)C2
Result: > 10 µM

Q: // returns reported IC50 for input O=C(/C=C/c1ccc(-c2cccc(C34CC5CC(CC(C5)C3)C4)c2)cc1)NO
Result: > 10 µM

Q: // returns reported IC50 for input O=C(/C=C/c1ccc(-c2ccc(O)c(C34CC5CC(CC(C5)C3)C4)c2)cc1)NO
Result: 2.64 µM

Q: // returns reported IC50 for input COc1ccc(-c2ccc(/C=C/C(=O)NO)cc2)cc1C12CC3CC(CC(C3)C1)C2
Result: 2.3 µM
